The origin of these recorded values is patent US9409952B2.

Experiment: Metabolic stability in human hepatic microsome
Type: in vitro ADME
Conditions: microsomes, pH 7.4; human hepatic microsome, NADPH(+); read-out: CL NADPH(+)
Starred links: 1 amine or outer side, 2 acyl side, 3 side chain; linkers in the order of their positions; H or OH if unused. Positions of bridges follow the written chain, without caps; N, C: chain ends. Non-standard residues stand in square brackets, D forms with d. Residues, ends and D or L forms follow the SMILES beside them. *: point of attachment. Phe(3-(CH2)4CO) = O=C([C@H](Cc1cccc(CCCCC(=O)[*:3])c1)N[*:1])[*:2]; NMePhe(3-Cl) = CN[C@@H](Cc1cccc(Cl)c1)C(=O)O; NMeF = CN[C@@H](Cc1ccccc1)C(=O)O; NMeGABA = CN(CCCC(=O)[*:2])[*:1]; NMeI = CC[C@H](C)[C@H](NC)C(=O)O; NMeβAla = CN(CCC(=O)[*:2])[*:1]; NMeL = CN[C@@H](CC(C)C)C(=O)O; NMeA = CN[C@@H](C)C(=O)O; Piperidide = C1CCN(*)CC1; dNMeA = CN[C@H](C)C(=O)O; β3hA = C[C@H](N)CC(=O)O; Sar = CNCC(=O)O; tBu = CC(C)(C)*
READOUT: microsomal CLint at 1 uM (µL/min/mg)
# value in µL/min/mg; strip the unit string

Solved cases below.
COMPOUND: CC[C@H](C)[C@H](NC(=O)[C@H](CC(C)C)N(C)C(=O)[C@H](C)N(C)C(=O)[C@@H](NC(=O)[C@H](CC(C)C)N(C)C(=O)[C@@H]1CC(=O)N[C@H](C(C)C)C(=O)N(C)[C@@H](C)C(=O)N(C)[C@@H](Cc2cccc(Cl)c2)C(=O)N(C)[C@@H](CC(C)C)C(=O)N[C@@H]([C@@H](C)O)C(=O)N(C)[C@@H](CC(C)C)C(=O)N1)[C@@H](C)CC)C(=O)N1CCCCC1 [DP-911] ([dV][NMeA][NMePhe(3-Cl)][NMeL]T[NMeL]D[NMeL]I[NMeA][NMeL]I-Piperidide; lactam N-7)
microsomal CLint at 1 uM (µL/min/mg): 152
//
COMPOUND: CC[C@H](C)[C@H]1C(=O)N[C@@H](C)C(=O)N(C)[C@@H](CC(C)C)C(=O)N[C@@H](COC(C)(C)C)C(=O)N(C)[C@@H](CC(C)C)C(=O)N[C@H](C(=O)N2CCCCC2)Cc2cccc(c2)CCCCC(=O)N[C@@H](Cc2ccccc2)C(=O)N(C)[C@@H](Cc2ccccc2)C(=O)N(C)[C@@H](CC(C)C)C(=O)N[C@@H]([C@@H](C)O)C(=O)N(C)[C@@H](C)C(=O)N1C [DP-874] (F[NMeF][NMeL]T[NMeA][NMeI]A[NMeL]S(tBu)[NMeL][Phe(3-(CH2)4CO)]-Piperidide; lactam N-11)
microsomal CLint at 1 uM (µL/min/mg): 48
//
COMPOUND: CC(C)C[C@@H]1NC(=O)[C@H](Cc2ccccc2)N(C)C(=O)[C@H](CC(C)C)N(C)C(=O)[C@@H](C)N(C)C(=O)C[C@@H](C(=O)N2CCCCC2)NC(=O)[C@H](CC(C)C)N(C)C(=O)[C@H](Cc2ccccc2)N(C)C(=O)[C@H]([C@@H](C)O)NC(=O)[C@H](Cc2ccccc2)N(C)C1=O [DP-441] ([dNMeA][NMeL][NMeF]L[NMeF]T[NMeF][NMeL]D-Piperidide; lactam N-9)
microsomal CLint at 1 uM (µL/min/mg): 123

Query: Consider the compound CC(C)C[C@H]1C(=O)N(C)[C@@H](CC(C)C)C(=O)N[C@@H]([C@@H](C)O)C(=O)N(C)[C@@H](Cc2ccccc2)C(=O)N[C@@H](COC(C)(C)C)C(=O)N(C)[C@@H](CC(C)C)C(=O)N[C@H](C(=O)N2CCCCC2)CC(=O)N(C)CCC(=O)N1C [DP-705] ([NMeβAla][NMeL][NMeL]T[NMeF]S(tBu)[NMeL]D-Piperidide; lactam N-8) and give its measured microsomal CLint at 1 uM.
Reply: 265

Query: Consider the compound CC(C)C[C@H]1C(=O)N(C)[C@@H](CC(C)C)C(=O)N[C@@H](C)CC(=O)N(C)CCCC(=O)N(C)[C@@H](Cc2ccccc2)C(=O)N[C@@H]([C@@H](C)O)C(=O)N(C)CC(=O)N[C@@H](COC(C)(C)C)C(=O)N1C [DP-795] (cyclo([NMeF]T[Sar]S(tBu)[NMeL][NMeL][β3hA][NMeGABA])) and give its measured microsomal CLint at 1 uM.
Reply: 143
